# Target of assay: T1, hIL2Rg-Fc (SinoBiological cat#10555) (human, UniProt P31785 23-254, limits assumed)
# T1 construct: Bought Fc fusion (SinoBiological cat#10555); P31785 is printed for hCD132 in the background; also called human IL2Rg-Fc; not shown: Fc of the bought fusion protein
# T1 sequence (looked up): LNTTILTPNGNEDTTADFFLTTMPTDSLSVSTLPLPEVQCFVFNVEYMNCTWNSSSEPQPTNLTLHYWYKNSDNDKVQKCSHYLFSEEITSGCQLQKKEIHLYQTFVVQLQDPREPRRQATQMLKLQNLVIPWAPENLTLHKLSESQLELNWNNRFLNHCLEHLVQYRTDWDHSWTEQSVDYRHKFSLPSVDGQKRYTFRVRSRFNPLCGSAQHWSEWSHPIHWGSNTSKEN
# Procedure text: SPR (Biacore T200); ratio experimental/calculated Rmax
Endpoint: Surface Activity (%)
Expressed in %, but write only the number.

[ask] Entry DR438(DR235-DR234) (bispecific antibody, Anti-hIL10Ra/hIL2Rg dual VHH with ASH6 handle; also called D12) QVQLQESGGGSVQAGGSLRLSCAASRYLYSIDYMAWFRQSPGKEREPVAVIYTASGATFYPDSVKGRFTISQDNAKMTVYLQMNSLKSEDTAMYYCAAVRKTDSYLFDAQSFTYWGQGTQVTVSSGGGSQVQLQESGGGSVQAGGSLRLSCVASGYTFSSYCMGWFRQAPGKEREGVAALGGGSTYYADSVKGRFTISQDNAKNTLYLQMNSLKPEDTAMYYCAAAWVACLEFGGSWYDLARYKHWGQGTQVTVSSASHHHHHH has what Surface Activity?
[reply] 5

[ask] What about this binder? DR465(DR240-DR231) (bispecific antibody, Anti-hIL10Ra/hIL2Rg dual VHH with ASH6 handle; also called H1) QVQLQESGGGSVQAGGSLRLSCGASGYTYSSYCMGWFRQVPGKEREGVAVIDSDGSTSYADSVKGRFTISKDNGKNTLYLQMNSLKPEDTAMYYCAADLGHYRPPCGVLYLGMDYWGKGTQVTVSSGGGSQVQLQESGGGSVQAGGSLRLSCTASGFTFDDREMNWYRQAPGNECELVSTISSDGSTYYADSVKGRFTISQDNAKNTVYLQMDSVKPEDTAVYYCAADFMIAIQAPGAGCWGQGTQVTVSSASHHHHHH
[reply] 4

[ask] Item: DR442(DR236-DR232) (bispecific antibody, Anti-hIL10Ra/hIL2Rg dual VHH with ASH6 handle; also called F7) QVQLQESGGGSVQAGGSLRLSCAASRFTYSSYCMGWFRQAPGKEREGVASIDSDGSTSYTDSVKGRFTISKDNAKNTLYLQMNSLKPEDTAMYYCALDLMSTVVPGFCGFLLSAGMDYWGKGTQVTVSSGGGSQVQLQESGGGSVQAGGSLRLSCVASGYTSCMGWFRQAPGKEREAVATIYTRGRSIYYADSVKGRFTISQDNAKNTLYLQMNSLKPEDIAMYSCAAGGYSWSAGCEFNYWGQGTQVTVSSASHHHHHH
[reply] 5

[ask] Subsequent entry: DR444(DR236-DR234) (bispecific antibody, Anti-hIL10Ra/hIL2Rg dual VHH with ASH6 handle; also called E8) QVQLQESGGGSVQAGGSLRLSCAASRFTYSSYCMGWFRQAPGKEREGVASIDSDGSTSYTDSVKGRFTISKDNAKNTLYLQMNSLKPEDTAMYYCALDLMSTVVPGFCGFLLSAGMDYWGKGTQVTVSSGGGSQVQLQESGGGSVQAGGSLRLSCVASGYTFSSYCMGWFRQAPGKEREGVAALGGGSTYYADSVKGRFTISQDNAKNTLYLQMNSLKPEDTAMYYCAAAWVACLEFGGSWYDLARYKHWGQGTQVTVSSASHHHHHH
[reply] 5

[ask] Also DR449(DR237-DR233) (bispecific antibody, Anti-hIL10Ra/hIL2Rg dual VHH with ASH6 handle; also called F3) QVQLQESGGGSVQAGGSLRLSCAASGYTYSMYCMGWFRQAPGKEREGVAQINSDGSTSYADSVKGRFTISKDNAKNTLYLQMNSLKPEDTAMYYCAADSRVYGGSWYERLCGPYTYEYNYWGQGTQVTVSSGGGSQVQLQESGGGSVQAGGSLRLSCTASGFTFDDSDMGWYRQAPGNECELVSTISSDGSTYYADSVKGRFTISQDNAKNTVYLQMNSLKPEDTAVYYCAAEPRGYYSNYGGRRECNYWGQGTQVTVSSASHHHHHH ?
[reply] 2
